System: ALT (Alternative Lengthening of Telomeres) cell line
assayRemarks: SRB growth inhibition, ALT
Assay type: cell-based, human
setupConditions: 96 hr, SRB assay; read-out: short-term 96 hr IC50 ALT
readoutKind: pIC50
# pIC50: negative log10 of molar concentration; output just the value

Example cases with answers are listed next.
compound | target | numericResult
O=C1c2ccc3c4c(c(NCC5CCCO5)cc(c24)C(=O)N1CCCN1CCOCC1)C(=O)N(CCCN1CCOCC1)C3=O (stereo not drawn) | ALT (Alternative Lengthening of Telomeres) cell line | 6.15
O=C1c2ccc3c4c(c(NCCN5CCCCC5)cc(c24)C(=O)N1CCCN1CCOCC1)C(=O)N(CCCN1CCOCC1)C3=O | ALT (Alternative Lengthening of Telomeres) cell line | 6.27
O=C1c2ccc3c4c(c(NCCCCN5CCCC5)cc(c24)C(=O)N1CCCN1CCOCC1)C(=O)N(CCCN1CCOCC1)C3=O | ALT (Alternative Lengthening of Telomeres) cell line | 7.05
O=C1c2ccc3c4c(c(NCCN5CCOCC5)cc(c24)C(=O)N1CCCN1CCOCC1)C(=O)N(CCCN1CCOCC1)C3=O | ALT (Alternative Lengthening of Telomeres) cell line | 4.96
CN1CCN(CCCNc2cc3c4c(c(NCCCN5CCN(C)CC5)cc5c4c2C(=O)N(CCCN2CCOCC2)C5=O)C(=O)N(CCCN2CCOCC2)C3=O)CC1 [MM41, reference compound] | ALT (Alternative Lengthening of Telomeres) cell line | 7.20

query: # return recorded pIC50 for input `CN1CCN(CCCNc2cc3c4c(ccc5c4c2C(=O)N(CCCN2CCOCC2)C5=O)C(=O)N(CCCN2CCOCC2)C3=O)CC1`
result: 6.65

---

Test system: Hsp90B sequence from the HSP90 promoter
assayRemarks: FRET quadruplex stabilisation assay, Hsp90B
Format: binding
setupConditions: compound at 1 μM, 60 mM potassium cacodylate buffer pH 7.4
Listing: ΔTm Hsp90B of selected molecules
Number only, in °C; omit the unit.

molecule | target | ΔTm Hsp90B / °C
CN1CCN(CCCNc2cc3c4c(ccc5c4c2C(=O)N(CCCN2CCOCC2)C5=O)C(=O)N(CCCN2CCOCC2)C3=O)CC1 [Compound 4a] | Hsp90B sequence from the HSP90 promoter | 16.5
CN1CCN(CCNc2cc3c4c(ccc5c4c2C(=O)N(CCCN2CCOCC2)C5=O)C(=O)N(CCCN2CCOCC2)C3=O)CC1 [Compound 4b] | Hsp90B sequence from the HSP90 promoter | 15.0
CN1CCN(CCCNc2cc3c4c(c(NCCCN5CCN(C)CC5)cc5c4c2C(=O)N(CCCN2CCOCC2)C5=O)C(=O)N(CCCN2CCOCC2)C3=O)CC1 [MM41, reference compound] | Hsp90B sequence from the HSP90 promoter | 28.6
O=C1c2ccc3c4c(c(NCCc5ccc(O)cc5)cc(c24)C(=O)N1CCCN1CCOCC1)C(=O)N(CCCN1CCOCC1)C3=O [Compound 4j] | Hsp90B sequence from the HSP90 promoter | 13.8
O=C1c2ccc3c4c(c(NCC5CCCO5)cc(c24)C(=O)N1CCCN1CCOCC1)C(=O)N(CCCN1CCOCC1)C3=O (stereo not drawn) [Compound 4h] | Hsp90B sequence from the HSP90 promoter | 6.8

query: With Hsp90B sequence from the HSP90 promoter as the test system, provide measured ΔTm Hsp90B for this molecule: CCN(CC)CCNc1cc2c3c(ccc4c3c1C(=O)N(CCCN1CCOCC1)C4=O)C(=O)N(CCCN1CCOCC1)C2=O [Compound 4i]
result: 4.5

---

Tested on: Kras32 sequence from the promoter region of the kras gene
assayRemarks: FRET quadruplex stabilisation assay, Kras32
Type: binding
setupConditions: compound at 1 μM, 60 mM potassium cacodylate buffer pH 7.4
Classify: Satisfied when ΔTm Kras32 is strictly less than 6 °C; Not satisfied when ΔTm Kras32 is not.

compound | qualitativeLabel
O=C1c2ccc3c4c(c(NCCc5ccc(O)cc5)cc(c24)C(=O)N1CCCN1CCOCC1)C(=O)N(CCCN1CCOCC1)C3=O [Compound 4j] | Satisfied
O=C1c2ccc3c4c(c(NCCc5ccccn5)cc(c24)C(=O)N1CCCN1CCOCC1)C(=O)N(CCCN1CCOCC1)C3=O [Compound 4d] | Satisfied
O=C1c2ccc3c4c(c(NCCN5CCCCC5)cc(c24)C(=O)N1CCCN1CCOCC1)C(=O)N(CCCN1CCOCC1)C3=O [Compound 4f] | Satisfied
CN1CCN(CCCNc2cc3c4c(c(NCCCN5CCN(C)CC5)cc5c4c2C(=O)N(CCCN2CCOCC2)C5=O)C(=O)N(CCCN2CCOCC2)C3=O)CC1 [MM41, reference compound] | Not satisfied

query: Determine if O=C1c2ccc3c4c(c(NCC5CCCO5)cc(c24)C(=O)N1CCCN1CCOCC1)C(=O)N(CCCN1CCOCC1)C3=O (stereo not shown) [Compound 4h] shows ΔTm Kras32 strictly lower than 6 °C.
result: Satisfied

query: Please indicate whether the reported ΔTm Kras32 of O=C1c2ccc3c4c(c(NCCN5CCCC5)cc(c24)C(=O)N1CCCN1CCOCC1)C(=O)N(CCCN1CCOCC1)C3=O [Compound 4c] is strictly below 6 °C.
result: Not satisfied

query: Find out if reported ΔTm Kras32 for CCN(CC)CCNc1cc2c3c(ccc4c3c1C(=O)N(CCCN1CCOCC1)C4=O)C(=O)N(CCCN1CCOCC1)C2=O [Compound 4i] is less than 6 °C
result: Satisfied

query: Problem: For the compound O=C1c2ccc3c4c(c(NCCCCN5CCCC5)cc(c24)C(=O)N1CCCN1CCOCC1)C(=O)N(CCCN1CCOCC1)C3=O [Compound 4e] , is ΔTm Kras32 under 6 °C?
result: Not satisfied
